All values here come from paper PMC5040251.

Target Under Test: fibronectin
Assay Summary: Dose-dependent binding assay to immobilized fibronectin
Condition Notes: plate binding to immobilized human plasma fibronectin; peptides serially diluted 1:2 from 40 to 0.625; absorbance 600 nm, three wells, representative of two independent experiments; non-linear regression, GraphPad Prism; read-out: Apparent Kd (Fn)
Ends that are not written are not given here.
Readout Name: pKd
Numbers only, as −log10 of the molar value.

Please review the following examples before continuing.
HHHHHHRKTVSFLTRNTAISSIRRRLEVTF [p10] : 5.80
HHHHHHTSRVKLTISFERSLVNRTRTARFI [p10scr1] : 5.89
HHHHHHGGAAQTHTQPPVQTAMRIALWNRA [p4] : 5.62
HHHHHHQGALQHLLAGLWIQTEISPNSGDI [p6] : 5.35

Next up:
pKd for fibronectin with input HHHHHHSIRRRLEVTFESHEVIHVRAVEDV [p11] equals 5.24
